Molecular target: T1, CD134 expressed on the cell surface of HT1080_OX40 cells (human, UniProt P43489 29-277)
T1 construct: whole, on cells; species not restated for the HT1080 transfectant
T1 sequence (looked up): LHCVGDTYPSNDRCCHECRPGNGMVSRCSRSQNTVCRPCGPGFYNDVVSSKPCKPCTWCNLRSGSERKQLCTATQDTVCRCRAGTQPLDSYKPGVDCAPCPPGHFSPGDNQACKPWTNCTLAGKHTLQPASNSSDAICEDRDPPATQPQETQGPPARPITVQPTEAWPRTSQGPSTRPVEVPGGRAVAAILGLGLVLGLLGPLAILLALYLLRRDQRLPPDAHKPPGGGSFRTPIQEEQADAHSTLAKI
Experiment: HT1080_OX40 cells, imaging; further: test concentration or dose not given here
Recorded Cellular binding assay [RFU] for the following binders

{"columns": ["binder", "Cellular binding assay [RFU], RFU"],
 "data": [
  ["P018.S.13.A.G06 (antibody, V domains shown, V regions on human Ig constant parts; also called AB134_92) VH: QSLEESGGGLVKPGASLTLTCKASGFDLSSYYYMCWVRQAPGKGLEWIGCFYTDDSANTWYATWAKGRFTISKTSSTTVTLQMTSLTAADTATYFCARDASGWYWFNLWGPGTLVTVSS VL: AQVLTQTPSPVSAAVGGTVTISCQSSQSLHDDNALAWYQQKPGQPPKLLIYLASYLASGVPSRFKGSGSGTQFTLTISEVQSDDAATYYCQGAYSGDNNSFGGGTEVVVK", 0],
  ["P018.S.12.A.A01 (antibody, V domains shown, V regions on human Ig constant parts; also called AB134_50) VH: QSVEESGGRLVTPGTPLTLTCTVSGFSLSSYAMIWVRQAPGKGLEYIGYISYDGSTYYASWVKGRFTISKTSTTVDLKMTSLTTEDTATYFCARARIDDGYGNLWGQGTLVTVSS VL: DVVMTQTPASVSEPVGGTVTIKCQASESISNYLAWYQQKPGQPPKLLIYAASYLASGVPSRFRGSGSGTEFTLTISDLESADAATYYCQCTYVASTYVGTFGGGTEVVVK", 600],
  ["P018.S.12.A.E06 (antibody, V domains shown, V regions on human Ig constant parts; also called AB134_77) VH: QSVEESGGRLVTPGTPLTLTCTVSGFSLSNYHMCWVRRAPGKGLEWIGSITTADETTHYANWAKGRFTISETSTTVDLRITSPTTEDTAIYFCGRTIRYDDYAVDLWGPGTLVTVSS VL: DLVMTQTPASMSEPVGGTVTIKCQASESVGGYLAWYQQKAGQRPKLLIYAAGNLASGVPSRFKGSGSGTEYTLTISDLESADAATYYCQCTYFDSSYVGFGGGTEVVVR", 493]
]}
